Recorded inhibition, one value per entry.
- ASSAY DETAILS: NALP3 inhibitors in yeast, repeat test, confirmation, luminescence, single concentration, retest (AID 488794)
- RECORDED CONDITIONS: yeast expressing human NALP3, luminescence read-out; at 10 µM; stronger effect = higher value
About 550 (55%) of roughly 1,000 compounds were called active. So high a share suggests a set chosen from earlier hits. The list is a sample of the results.
Just the number please, in %, no unit attached.

Here is how some compounds turned out for inhibition.
ITEM SMILES	inhibition, %
N#Cc1nc(Cc2ccccc2)oc1NCCc1ccccc1	36.6
O=C1CSC(=S)N1c1ccc(O)cc1	59.4
Oc1c(Cl)cc(Cl)c(Cl)c1Cc1c(O)c(Cl)cc(Cl)c1Cl	98.5
O=C(NCc1ccc2c(c1)OCO2)c1c(O)nc2sccn2c1=O	38.4
O=C(CSc1ccc(-c2ccc(-n3cccn3)cc2)nn1)Nc1ccc([N+](=O)[O-])cc1	18.1

Query: Item `CN(C)c1ccnc2sc(C(=O)c3ccccc3)c(N)c12` has what recorded inhibition?
Response: 53.6

Query: Same for `CCc1cc(C(=O)Nc2nnc(C3CC3)s2)sc1C`
Response: 40.9

Query: Now consider `Fc1ccccc1-c1cc2cc3c(cc2cn1)OCO3` and answer again.
Response: 39

Query: Please give the result for `Cc1cc(C)nc(NC(=O)Nc2ccccc2C(F)(F)F)n1` too.
Response: 34.8

###

This listing pairs compounds with measured inhibition.
- ASSAY DETAILS: NALP3 inhibitors in yeast, repeat test, confirmation, luminescence, single concentration, retest (AID 488794)
- RECORDED CONDITIONS: yeast expressing human NALP3, luminescence read-out; at 10 µM; stronger effect = higher value
Out of some 1,000 compounds screened, about 550 (55%) were called active. The set was probably picked from earlier hits. These entries were drawn from the full list.
Enter your answer as a number in %; do not include the unit.

Sample records with inhibition:
ITEM SMILES	READING
Cc1cc(C(=O)COc2ccc(Br)cc2F)c(C)n1C1CC1	49.4
Cc1cccc(NC(=S)NC(=O)c2ccc(Br)o2)c1	65.7
CCOC(=O)c1c(C)[nH]c(C(=O)COc2ccc3c(c2)OCO3)c1C	54.5
Nc1c(-c2cccc(Cl)c2)cnn1-c1cccc([N+](=O)[O-])c1	52.1
Cc1ccc(-c2nn(C(C)(C)C)c3ncnc(N)c23)cc1	63.2
Cc1ccc(CSc2nsc(C)c2C#N)cc1	48.2

Query: Consider the compound `CC(C)Sc1ncnc2c1cnn2-c1ccccc1` and give its measured inhibition.
Response: 46.2

Query: Please answer likewise for `O=C(CC(O)(C(F)(F)F)C(F)(F)F)Nc1ccc(Cl)c(Cl)c1`
Response: 99.8

Query: `C[C@@H]1C[C@@H]2O[C@H]2/C=C\C=C\C(=O)Cc2c(Cl)c(O)cc(O)c2C(=O)O1` ?
Response: 66.2

Query: Then `Cc1ccc(OCc2nc3ccccc3n2C)cc1` ?
Response: 57.2

Query: Would you mind doing `Cc1c(C(=O)N2CCCc3ccccc32)oc2ccccc12` as well?
Response: 47.9

###

- ASSAY DETAILS: NALP3 inhibitors in yeast, repeat test, confirmation, luminescence, single concentration, retest (AID 488794)
- RECORDED CONDITIONS: yeast expressing human NALP3, luminescence read-out; at 10 µM; stronger effect = higher value
Among all 1,000 compounds or so, about 550 (55%) were called active. The set was probably picked from earlier hits. These entries were drawn from the full list.
RESULT TYPE: inhibition (%)
// note: answer is a bare numeric in %

Query: Which value of inhibition has been reported for `CC(C)n1c(COc2ccccc2)nc2ccccc21` in the records?
Response: 47.7

Query: And then `Cc1ccc(O)c(NC(=O)c2cc(-c3ccco3)on2)c1` , what is it?
Response: 63.7

Query: Let us now turn to `O=[N+]([O-])c1cccc(/C=N/Nc2ncc(Br)cn2)c1`
Response: 33.4

Query: // repeat for `Cc1ccc(OCc2nc(C#N)c(N3CCCC3)o2)cc1` and report
Response: 53.5

Query: Also `COc1ccccc1C(=O)Nc1ccc(NC(=O)c2ccco2)c(C)c1` , if possible.
Response: 32.3

Query: How about this molecule: `COc1ccccc1OCc1nc2ccccc2s1`
Response: 43.2

Values from PubChem BioAssay AID488794
